Reference for the values: patent US12421276B2

Catalogue of SIF Stability (pH 6.8) 240 min values
- PROTOCOL_DESCRIPTION: Metabolic stability in simulated intestinal fluid (SIF), pH 6.8, with or without pancreatin
- Assay type: in vitro ADME
- PARTICULARS: −Pancreatin, 5 μM, 37° C., 240 min
Where a SMILES comes first, the peptide text is derived from it. [ ]: non-standard residue; d: D form. The star is where a group is joined. ξ: configuration not given here. pY = N[CH](Cc1ccc(OP(=O)(O)O)cc1)C(=O)O; ξpY = NC(Cc1ccc(OP(=O)(O)O)cc1)C(=O)O; Ile(3ξ) = CCC(C)[C@H](N)C(=O)O; Hexanoyl = CCCCCC(=O)*; Ahx = NCCCCCC(=O)O

q: Sample CCCCCC(=O)N1C(Cc2ccc(OP(=O)([O-])[O-])cc2)C(=O)N(C(C(=O)NCCCCCC(N)=O)C(C)CC)C12CCN(C)CC2.[Na+].[Na+] (stereo not drawn) — what was its SIF Stability (pH 6.8) 240 min?
a: 78%

q: And then CCCCCC(=O)NC(Cc1ccc(OP(=O)(OCCN(C)C)OCCN(C)C)cc1)C(=O)NC(C(=O)NCCCCCC(N)=O)C(C)CC (stereo not drawn) , what is it?
a: 8%

q: And then CCCCCC(=O)NC(Cc1ccc(OP(=O)([O-])O)cc1)C(=O)NC(C(=O)NCCCCCC(N)=O)C(C)CC.[Na+] (stereo not drawn) [Compound A30] (Hexanoyl-[pY]-Ile-[Ahx]-NH2; configuration not given here) , what is it?
a: 8%

q: And then CCCCCC(=O)N[C@@H](Cc1ccc(O)cc1)C(=O)N[C@H](C(=O)NCCCCCC(N)=O)[C@@H](C)CC [Base Structure, reference compound] (Hexanoyl-Tyr-Ile-[Ahx]-NH2) , what is it?
a: 113%

---
q: Sample CCCCCC(=O)NC(Cc1ccc(OP(=O)(O)O)cc1)C(=O)N[C@H](C(=O)NCCCCCC(N)=O)C(C)CC.N.N (stereo partly drawn) [Compound A29] (Hexanoyl-[ξpY]-[Ile(3ξ)]-[Ahx]-NH2) — what was its SIF Stability (pH 6.8) 240 min?
a: 103%

q: And then CCCCCC(=O)NC(Cc1ccc(OC(=O)N2CCN(C)CC2)cc1)C(=O)NC(C(=O)NCCCCCC(N)=O)C(C)CC (stereo not drawn) , what is it?
a: 51%

----------
- PROTOCOL_DESCRIPTION: Metabolic stability in simulated gastric fluid (SGF), pH 1.2, with or without pepsin
- Type: in vitro ADME
- PARTICULARS: simulated gi fluid, pH 1.2, +Pepsin (0.32%), 5 μM, 37° C.
MEASURE: half-life (h)
Provide the reading as a plain figure in h.

q: Sample CCCCCC(=O)N1C(Cc2ccc(OP(=O)([O-])[O-])cc2)C(=O)N(C(C(=O)NCCCCCC(N)=O)C(C)CC)C12CCN(C)CC2.[Na+].[Na+] (stereo not shown) [Compound 2] — what was its half-life?
a: 8.62

----------
- PROTOCOL_DESCRIPTION: Metabolic stability in simulated intestinal fluid (SIF), pH 6.8, with or without pancreatin
- Assay type: in vitro ADME
- PARTICULARS: −Pancreatin, 5 μM, 37° C., 120 min
Where a SMILES comes first, the peptide text is derived from it. [ ]: non-standard residue; d: D form. The star is where a group is joined. ξ: configuration not given here. pY = N[CH](Cc1ccc(OP(=O)(O)O)cc1)C(=O)O; ξpY = NC(Cc1ccc(OP(=O)(O)O)cc1)C(=O)O; Ile(3ξ) = CCC(C)[C@H](N)C(=O)O; Hexanoyl = CCCCCC(=O)*; Ahx = NCCCCCC(=O)O
Catalogue of SIF Stability (pH 6.8) 120 min values
Provide the reading as a plain figure in %.

q: Sample CCCCCC(=O)NC(Cc1ccc(OP(=O)(O)O)cc1)C(=O)N[C@H](C(=O)NCCCCCC(N)=O)C(C)CC.N.N (some centres unmarked) [Compound A29] (Hexanoyl-[ξpY]-[Ile(3ξ)]-[Ahx]-NH2) — what was its SIF Stability (pH 6.8) 120 min?
a: 97

q: And then CCCCCC(=O)N1C(Cc2ccc(OP(=O)([O-])[O-])cc2)C(=O)N(C(C(=O)NCCCCCC(N)=O)C(C)CC)C12CCN(C)CC2.[Na+].[Na+] (centres unmarked) [Compound 2] , what is it?
a: 82

q: And then CCCCCC(=O)NC(Cc1ccc(OP(=O)(OCCN(C)C)OCCN(C)C)cc1)C(=O)NC(C(=O)NCCCCCC(N)=O)C(C)CC (centres unmarked) [Compound A18] , what is it?
a: 17

q: And then CCCCCC(=O)NC(Cc1ccc(OC(=O)N2CCN(C)CC2)cc1)C(=O)NC(C(=O)NCCCCCC(N)=O)C(C)CC (centres unmarked) [Compound A20] , what is it?
a: 57

Please turn your attention to the following entry.
q: Sample CCCCCC(=O)NC(Cc1ccc(OP(=O)([O-])O)cc1)C(=O)NC(C(=O)NCCCCCC(N)=O)C(C)CC.[Na+] (centres unmarked) [Compound A30] (Hexanoyl-[pY]-Ile-[Ahx]-NH2; configuration not given here) — what was its SIF Stability (pH 6.8) 120 min?
a: 22

----------
- PROTOCOL_DESCRIPTION: Metabolic stability in simulated gastric fluid (SGF), pH 1.2, with or without pepsin
- Format: in vitro ADME
- PARTICULARS: simulated gi fluid, pH 1.2, −Pepsin, 5 μM, 37° C.
- Method: Metabolic Stability in SIF and SGF (Simulated Intestinal and Gastric Fluid) Buffer 1=SGF without enzyme Buffer 2=SGF with 0.32% pepsin SIF was prepared freshly with 8.7 mM NaOH, 28.65 mM NaH2PO4, 105.85 mM NaCl, with a final pH of 6.8. SGF was prepared freshly with 34.2 mM NaCl, with a final pH of 1.2. […] Compounds were dissolved as 1.5 mM DMSO stocks. […] The extent of metabolism was calculated as the disappearance of the test compound, compared to the 0-min control reaction incubations. […]
MEASURE: half-life (h)
Provide the reading as a plain figure in h.

q: Sample CCCCCC(=O)N1C(Cc2ccc(OP(=O)([O-])[O-])cc2)C(=O)N(C(C(=O)NCCCCCC(N)=O)C(C)CC)C12CCN(C)CC2.[Na+].[Na+] (stereo not shown) [Compound 2] — what was its half-life?
a: 7.17

----------
- PROTOCOL_DESCRIPTION: Plasma stability study, human plasma
- Format: in vitro ADME
- PARTICULARS: Human plasma, 1 μM, 37° C., 120 min
Where a SMILES comes first, the peptide text is derived from it. [ ]: non-standard residue; d: D form. The star is where a group is joined. pY = N[CH](Cc1ccc(OP(=O)(O)O)cc1)C(=O)O; Hexanoyl = CCCCCC(=O)*; Ahx = NCCCCCC(=O)O
MEASURE: Plasma Stability (% Parent Remaining) 120 min (%)
Provide the reading as a plain figure in %.

q: Sample CCCCCC(=O)NC(Cc1ccc(OP(=O)([O-])O)cc1)C(=O)NC(C(=O)NCCCCCC(N)=O)C(C)CC.[Na+] (centres unmarked) [Compound A30] (Hexanoyl-[pY]-Ile-[Ahx]-NH2; configuration not given here) — what was its Plasma Stability (% Parent Remaining) 120 min?
a: 20

q: And then CCCCCC(=O)N[C@@H](Cc1ccc(O)cc1)C(=O)N[C@H](C(=O)NCCCCCC(N)=O)[C@@H](C)CC [Base Structure, reference compound] (Hexanoyl-Tyr-Ile-[Ahx]-NH2) , what is it?
a: 102

q: And then CCCCCC(=O)NC(Cc1ccc(OC(=O)N2CCN(C)CC2)cc1)C(=O)NC(C(=O)NCCCCCC(N)=O)C(C)CC (centres unmarked) [Compound A20] , what is it?
a: 87

---
q: Sample CCCCCC(=O)N1C(Cc2ccc(OP(=O)([O-])[O-])cc2)C(=O)N(C(C(=O)NCCCCCC(N)=O)C(C)CC)C12CCN(C)CC2.[Na+].[Na+] (centres unmarked) [Compound 2] — what was its Plasma Stability (% Parent Remaining) 120 min?
a: 90

q: And then CCCCCC(=O)NC(Cc1ccc(OC(=O)NCCN(C)C)cc1)C(=O)NC(C(=O)NCCCCCC(N)=O)C(C)CC (centres unmarked) [Compound A21] , what is it?
a: 33

----------
- Type: in vivo, rat
- PARTICULARS: rat; dosed as prodrug, 10 mg/kg equivalent of Base Structure; analyte Parent (Base Structure); Average
MEASURE: Cl/F_obs

q: Sample CCCCCC(=O)NC(Cc1ccc(OP(=O)(OCCN(C)C)OCCN(C)C)cc1)C(=O)NC(C(=O)NCCCCCC(N)=O)C(C)CC (stereo not shown) — what was its Cl/F_obs?
a: 1.944 (mg/kg)/(ng/ml)/h

q: And then CCCCCC(=O)N1C(Cc2ccc(OP(=O)([O-])[O-])cc2)C(=O)N(C(C(=O)NCCCCCC(N)=O)C(C)CC)C12CCN(C)CC2.[Na+].[Na+] (stereo not shown) , what is it?
a: 0.2421 (mg/kg)/(ng/ml)/h

---
q: Sample CCCCCC(=O)NC(Cc1ccc(OC(=O)N2CCN(C)CC2)cc1)C(=O)NC(C(=O)NCCCCCC(N)=O)C(C)CC (stereo not shown) — what was its Cl/F_obs?
a: 6.207 (mg/kg)/(ng/ml)/h

q: And then CCCCCC(=O)NC(Cc1ccc(OC(=O)NCCN(C)C)cc1)C(=O)NC(C(=O)NCCCCCC(N)=O)C(C)CC (stereo not shown) , what is it?
a: 0.2094 (mg/kg)/(ng/ml)/h
